// UniProt:Q07343 pIC50 records
Sequence (Q07343 whole entry): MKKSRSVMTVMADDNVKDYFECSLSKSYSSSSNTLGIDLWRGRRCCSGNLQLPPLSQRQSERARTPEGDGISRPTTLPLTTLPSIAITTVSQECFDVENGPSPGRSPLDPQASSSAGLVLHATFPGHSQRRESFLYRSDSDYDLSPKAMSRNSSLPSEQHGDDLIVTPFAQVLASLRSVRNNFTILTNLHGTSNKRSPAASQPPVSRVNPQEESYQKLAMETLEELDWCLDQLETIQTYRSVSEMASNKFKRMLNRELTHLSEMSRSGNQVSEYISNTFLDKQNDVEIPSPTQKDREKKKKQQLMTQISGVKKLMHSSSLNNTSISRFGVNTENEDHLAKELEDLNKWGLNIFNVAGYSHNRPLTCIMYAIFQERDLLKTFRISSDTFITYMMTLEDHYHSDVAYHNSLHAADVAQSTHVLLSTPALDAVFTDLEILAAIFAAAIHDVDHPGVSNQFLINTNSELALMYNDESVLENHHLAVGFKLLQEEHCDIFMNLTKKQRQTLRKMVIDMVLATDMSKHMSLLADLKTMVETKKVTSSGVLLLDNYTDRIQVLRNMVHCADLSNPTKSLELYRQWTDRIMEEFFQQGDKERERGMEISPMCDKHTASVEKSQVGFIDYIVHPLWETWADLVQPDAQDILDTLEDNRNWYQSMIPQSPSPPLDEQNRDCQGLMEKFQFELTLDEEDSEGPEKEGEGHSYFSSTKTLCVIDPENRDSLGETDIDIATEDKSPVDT
Units for pIC50: none; it is -log10 of a concentration expressed in mol/L.

Examples with answers:
{"COMPOUND": "CCOc1ccc(/C=C2\\SC(=S)NC2=O)cc1OC", "METRIC": "pIC50", "ASSAY VALUE": 5.16}
{"COMPOUND": "COc1ccc(/C=C2\\SC(=S)N(C)C2=O)cc1OC1CCCC1", "METRIC": "pIC50", "ASSAY VALUE": 5.54}
{"COMPOUND": "COc1cccc(/C=C2\\SC(=S)NC2=O)c1OC", "METRIC": "pIC50", "ASSAY VALUE": 4.26}

Prompt: // lookup pIC50 for `CCN1C(=O)/C(=C/c2ccc(O)c(OC)c2)SC1=S`
Response: 6.13

Prompt: Would you kindly repeat that for `COc1ccc(/C=C2\SC(=O)NC2=O)cc1OC` ?
Response: 4.85

Prompt: Would you kindly repeat that for `COc1ccc(/C=C2\SC(=O)NC2=O)cc1OC1CCCC1` ?
Response: 5.96

Prompt: Would you kindly repeat that for `COc1ccc(/C=C2\SC(=S)NC2=O)cc1OC1CCCCC1` ?
Response: 5.71

Prompt: Would you kindly repeat that for `COc1cc(/C=C2\SC(=S)NC2=O)ccc1OC1CCCC1` ?
Response: 4.52

Prompt: Would you kindly repeat that for COc1ccc(/C=C2\SC(=S)NC2=O)cc1OC (stereo in doubt; 2a) ?
Response: 4.75

Prompt: Would you kindly repeat that for COc1ccc(/C=C2\SC(=S)NC2=O)cc1OC (stereo in doubt; 10a) ?
Response: 4.55

###

Reported pIC50 values are given for each entry in this list.
- ASSAYED TARGET: cGMP-inhibited 3',5'-cyclic phosphodiesterase 3A (Homo sapiens)
- Sequence (Q14432 whole entry): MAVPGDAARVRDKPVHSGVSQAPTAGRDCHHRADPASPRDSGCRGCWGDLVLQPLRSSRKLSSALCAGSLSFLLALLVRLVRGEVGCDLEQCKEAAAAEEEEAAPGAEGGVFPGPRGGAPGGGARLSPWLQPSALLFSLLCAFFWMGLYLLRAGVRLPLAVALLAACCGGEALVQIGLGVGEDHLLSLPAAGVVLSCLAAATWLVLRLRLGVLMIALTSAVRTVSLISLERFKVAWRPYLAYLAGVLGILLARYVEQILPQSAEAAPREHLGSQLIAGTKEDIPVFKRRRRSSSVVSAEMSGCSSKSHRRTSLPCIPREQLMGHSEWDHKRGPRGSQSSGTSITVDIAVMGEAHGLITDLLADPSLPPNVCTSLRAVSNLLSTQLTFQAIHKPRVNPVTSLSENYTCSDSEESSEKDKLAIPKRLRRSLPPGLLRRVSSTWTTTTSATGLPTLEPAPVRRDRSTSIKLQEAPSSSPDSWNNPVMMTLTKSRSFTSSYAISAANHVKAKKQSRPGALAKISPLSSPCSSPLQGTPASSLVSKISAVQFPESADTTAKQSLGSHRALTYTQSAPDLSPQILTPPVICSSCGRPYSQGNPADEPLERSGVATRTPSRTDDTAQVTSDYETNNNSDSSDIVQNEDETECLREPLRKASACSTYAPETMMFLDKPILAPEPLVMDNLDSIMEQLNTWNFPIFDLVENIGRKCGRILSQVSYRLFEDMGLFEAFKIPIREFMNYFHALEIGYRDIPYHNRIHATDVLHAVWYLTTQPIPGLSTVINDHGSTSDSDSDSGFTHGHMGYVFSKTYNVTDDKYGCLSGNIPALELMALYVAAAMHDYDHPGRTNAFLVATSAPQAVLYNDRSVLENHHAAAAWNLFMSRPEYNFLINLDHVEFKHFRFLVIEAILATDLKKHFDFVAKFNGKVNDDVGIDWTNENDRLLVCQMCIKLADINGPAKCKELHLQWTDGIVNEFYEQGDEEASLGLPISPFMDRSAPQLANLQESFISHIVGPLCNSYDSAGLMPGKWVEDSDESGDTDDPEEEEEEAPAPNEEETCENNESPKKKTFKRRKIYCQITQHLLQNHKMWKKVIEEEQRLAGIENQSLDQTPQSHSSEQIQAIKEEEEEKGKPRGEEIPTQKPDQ
Units for pIC50: none; it is -log10 of a concentration expressed in mol/L.

Examples with answers:
{"MOLECULE": "CCOc1ccc(/C=C2\\SC(=S)NC2=O)cc1OCC", "ASSAYED TARGET": "cGMP-inhibited 3',5'-cyclic phosphodiesterase 3A (Homo sapiens)", "METRIC": "pIC50", "ASSAY VALUE": 4.10}
{"MOLECULE": "CCOc1cc(/C=C2\\SC(=S)NC2=O)ccc1OC", "ASSAYED TARGET": "cGMP-inhibited 3',5'-cyclic phosphodiesterase 3A (Homo sapiens)", "METRIC": "pIC50", "ASSAY VALUE": 4.40}
{"MOLECULE": "COc1ccc(/C=C2\\SC(=S)NC2=O)cc1OC1CCCC1", "ASSAYED TARGET": "cGMP-inhibited 3',5'-cyclic phosphodiesterase 3A (Homo sapiens)", "METRIC": "pIC50", "ASSAY VALUE": 4.97}
{"MOLECULE": "COc1ccc(/C=C2\\SC(=S)NC2=O)cc1OC (stereo in doubt; 2a)", "ASSAYED TARGET": "cGMP-inhibited 3',5'-cyclic phosphodiesterase 3A (Homo sapiens)", "METRIC": "pIC50", "ASSAY VALUE": 4.98}

Prompt: // lookup pIC50 for `CCOc1ccc(/C=C2\SC(=S)NC2=O)cc1OC`
Response: 5.02
